Below: compounds with IC50 recorded for High affinity nerve growth factor receptor (Homo sapiens) in separate published works.
Measured Property: IC50 (nM)

Below are worked cases with known answers.
Chemical String	Measured On	Value Observed
CCOc1nc(N2CCN(C(C)=O)CC2)ccc1NC(=O)c1coc2c1C(=O)NC1(C2)CN(C(C)=O)C1	High affinity nerve growth factor receptor (Homo sapiens)	65.4
Fc1ccc(F)c([C@H]2CCCN2c2ccc3[nH]nc(/C=C/c4ccccn4)c3c2)c1	High affinity nerve growth factor receptor (Homo sapiens)	8.1
CC(C)Oc1cc(-n2cnc3cc(Cl)c(N[C@@H](C)c4ccc(F)cn4)nc32)n[nH]1	High affinity nerve growth factor receptor (Homo sapiens)	4
CNC(=O)c1ccc(-c2cc(O[C@H](C)C(F)(F)F)c3c(N)n[nH]c3c2)cc1N1CCC(N2CCOCC2)CC1	High affinity nerve growth factor receptor (Homo sapiens)	2550

P. COc1cc(N2CCN(C(=O)OC(C)(C)C)CC2)ccc1NC(=O)c1coc2c1C(=O)NCC2
Q. COc1cc2nccc(Oc3cnc(NC(=O)c4cn(C(C)C)nc(-c5ccc(F)cc5)c4=O)nc3)c2cc1OC
R. CC(=O)N1CCN(c2ccc(NC(=O)c3coc4c3C(=O)NC(C)(C)C4)c(OC(C)C)n2)[C@@H](CO)C1
S. C[C@H](Nc1nc(Nc2cc(C3CC3)[nH]n2)ncc1C#N)c1ccc(F)cc1
Rank order required: IC50, descending. Provide the labels, sequenced as the question asks.
P, S, Q, R
(P: 54.4 nM, S: 36 nM, Q: 18 nM, R: 2.4 nM)
